All figures here come from patent US9828352B2.

# study-system: human FAAH-1 (Homo sapiens, UniProt O00519)
# Construct: membrane preparation
# Sequence (O00519 1-579): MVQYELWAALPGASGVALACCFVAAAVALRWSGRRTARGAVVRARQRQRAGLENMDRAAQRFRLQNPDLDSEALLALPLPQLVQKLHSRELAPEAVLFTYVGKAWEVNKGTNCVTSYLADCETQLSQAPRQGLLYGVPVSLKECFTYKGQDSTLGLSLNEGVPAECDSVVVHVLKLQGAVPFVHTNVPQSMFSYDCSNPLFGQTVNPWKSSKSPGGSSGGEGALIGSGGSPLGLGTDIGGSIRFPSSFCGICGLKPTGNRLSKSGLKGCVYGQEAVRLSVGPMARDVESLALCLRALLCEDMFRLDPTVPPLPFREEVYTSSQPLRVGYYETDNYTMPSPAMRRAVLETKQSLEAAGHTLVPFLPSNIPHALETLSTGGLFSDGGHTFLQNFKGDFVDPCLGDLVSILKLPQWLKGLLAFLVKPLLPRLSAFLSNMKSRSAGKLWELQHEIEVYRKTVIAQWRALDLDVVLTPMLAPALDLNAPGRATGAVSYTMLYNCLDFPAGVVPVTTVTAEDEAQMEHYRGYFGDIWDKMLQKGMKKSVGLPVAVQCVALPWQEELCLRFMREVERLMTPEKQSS
# protocol-notes: Human recombinant Fatty Acid Amide Hydrolase-1 (FAAH-1) fluorescent assay, Hek293-hFAAH-1 membranes
# study-conditions: 3 separate experiments, each in triplicate
Counter-ions that a name gives are not always drawn.
Here, each record is paired with measured IC50 data.
result-type: IC50 (nM)

[[record]]
molecule = "COc1ccccc1N1CCN(CCCCNC(=O)Oc2ccc(C(=O)c3ccccc3)cc2)CC1 [Example 45, hydrochloride]"
experimental_result = 5.3

[[record]]
molecule = "O=C(NCCCCN1CCN(c2cccc(Cl)c2Cl)CC1)Oc1ccc(-c2ccccn2)cc1 [Example 24]"
experimental_result = 0.21

[[record]]
molecule = "NC(=O)c1cccc(-c2cccc(OC(=O)NCCCCN3CCC(c4ccccc4)CC3)c2)c1 [Example 14, hydrochloride]"
experimental_result = 9.6

[[record]]
molecule = "O=C(NCCC(F)CN1CCN(c2cccc(Cl)c2Cl)CC1)Oc1ccc(-c2ccccc2)cc1 (stereo not shown) [Example 36]"
experimental_result = 1.3

